FYI, the data here is from PubChem BioAssay (EPA / NIEHS).

read-out: matrix metalloproteinase-10 (MMP10), MMP10 (gene 4319); experiment: LTEA_HepaRG_MMP10: Life Technologies and Expression Analysis (LTEA) Assay for matrix metalloproteinase-10 (MMP10) using HepaRG (AID 2283517); details: mRNA level, 48 h; actives raise or lower the signal
The source made the active and inactive calls. Rule for the calls: active = hit-call score of the fitted dose curve at least 0.9, where 1 is the maximum; inactive = score below 0.9.
Lab note: assign the record to one of active, inactive

[in] Short answer needed: outcome of this test for `Clc1ccc(Cl)c(Cl)c1` ?
[out] inactive

[in] Short answer needed: outcome of this test for `CCCCCCCCOC(=O)c1ccc(C(=O)OCCCCCCCC)c(C(=O)OCCCCCCCC)c1` ?
[out] inactive

[in] Short answer needed: outcome of this test for CC(O)CCO (stereo not drawn) ?
[out] inactive

[in] Short answer needed: outcome of this test for `O=C(N[C@H](c1ccccc1)[C@@H]1CN2CCC1CC2)c1c(Cl)ccc(C(F)(F)F)c1Cl` ?
[out] active

[in] Short answer needed: outcome of this test for `O=[N+]([O-])c1ccc(Oc2ccc(Cl)cc2Cl)cc1` ?
[out] inactive

[in] Short answer needed: outcome of this test for CC(C)(C)C(O)(CCc1ccc(Cl)cc1)Cn1cncn1 (stereo not drawn) ?
[out] inactive

[in] Short answer needed: outcome of this test for `COc1cc(C=O)cc2c1[C@H](COC(N)=O)[C@]1(OC(C)=O)ON2C[C@H]2[C@@H]1N2C(C)=O` ?
[out] active

[in] Short answer needed: outcome of this test for `O=C(Oc1ccc(Br)cc1)N1CCN2CCC1CC2` ?
[out] inactive

[in] Short answer needed: outcome of this test for `CCCCCCCCn1sccc1=O` ?
[out] active

[in] Short answer needed: outcome of this test for `OCCCBr` ?
[out] inactive

[in] Short answer needed: outcome of this test for c1ccc(C2CO2)cc1 (stereo not drawn) ?
[out] inactive

[in] Short answer needed: outcome of this test for `[O-][Cl+]O` ?
[out] inactive

[in] Short answer needed: outcome of this test for CCOc1cccc(C2(N3CCN(c4ccccc4)CC3)CCC(C)CC2)c1 (stereo not drawn) ?
[out] inactive

[in] Short answer needed: outcome of this test for `c1ccc(NNc2ccccc2)cc1` ?
[out] inactive

[in] Short answer needed: outcome of this test for `Clc1ccc(C(c2ccc(Cl)cc2)C(Cl)(Cl)Cl)cc1` ?
[out] inactive

[in] Short answer needed: outcome of this test for `O=P(OCCCl)(OCCCl)OCCCl` ?
[out] inactive

[in] Short answer needed: outcome of this test for `Cc1cccc(N)c1N` ?
[out] inactive

[in] Short answer needed: outcome of this test for `OCCOCCO` ?
[out] inactive

[in] Short answer needed: outcome of this test for C[N+](C)(C)CC1CO1 (stereo not drawn) ?
[out] inactive

[in] Short answer needed: outcome of this test for `CCCCCOC(=O)c1ccccc1C(=O)OCCCCC` ?
[out] inactive

[in] Short answer needed: outcome of this test for CCCCC(CC)COC(=O)c1ccc(C(=O)OCC(CC)CCCC)c(C(=O)OCC(CC)CCCC)c1 (stereo not drawn) ?
[out] inactive

[in] Short answer needed: outcome of this test for `CN(C)[C@@H]1C(=O)C(C(N)=O)=C(O)[C@@]2(O)C(=O)C3=C(O)c4c(O)cccc4[C@@](C)(O)[C@H]3C[C@@H]12` ?
[out] inactive

[in] Short answer needed: outcome of this test for `Nc1ccc(Oc2ccc(N)cc2)cc1` ?
[out] inactive

[in] Short answer needed: outcome of this test for `N#CC(Br)Br` ?
[out] inactive

[in] Short answer needed: outcome of this test for `CC(C)(C)OOC(=O)c1ccccc1` ?
[out] inactive

[in] Short answer needed: outcome of this test for `Oc1ccc2ccc3cccc4ccc1c2c34` ?
[out] inactive

[in] Short answer needed: outcome of this test for `CC(C)COC(=O)c1ccccc1C(=O)OCC(C)C` ?
[out] inactive

[in] Short answer needed: outcome of this test for `Nc1ccc(Cl)cc1N` ?
[out] inactive

---

read-out: Interferon-gamma inducible Protein 10 (IP10), CXCL10 (gene 3627); test: BSK_KF3CT_IP10: BioMAP Diversity Plus: KF3CT Assay for Interferon-gamma inducible Protein 10 (IP10) Biomarker Activity (AID 2283068); conditions: primary human keratinocytes with fibroblasts; actives raise or lower the signal
Active and inactive are the calls of the source. How the source made its calls: active means hit-call score of the fitted dose curve at least 0.9, where 1 is the maximum; inactive means score below 0.9.
Lab note: assign the record to one of active, inactive

[in] Short answer needed: outcome of this test for `CN(C)c1ccc(C(=O)c2ccc(N(C)C)cc2)cc1` ?
[out] inactive

[in] Short answer needed: outcome of this test for `CN(C)C(=O)Nc1ccc(Cl)cc1` ?
[out] inactive

[in] Short answer needed: outcome of this test for `O=C(N[C@H](c1ccccc1)[C@@H]1CN2CCC1CC2)c1c(Cl)ccc(C(F)(F)F)c1Cl` ?
[out] active

[in] Short answer needed: outcome of this test for `O=C(Nc1ccccc1)c1ccccc1I` ?
[out] inactive

[in] Short answer needed: outcome of this test for `C1=Cc2cccc3cccc1c23` ?
[out] inactive

[in] Short answer needed: outcome of this test for `C[C@]12C=CC3=C4CCC(=O)C=C4CC[C@H]3[C@@H]1CC[C@@H]2O` ?
[out] inactive

[in] Short answer needed: outcome of this test for `Cn1cc(-c2ccccc2)c(=O)c(-c2cccc(C(F)(F)F)c2)c1` ?
[out] inactive

[in] Short answer needed: outcome of this test for `Clc1ccc(C(c2ccc(Cl)cc2)C(Cl)(Cl)Cl)cc1` ?
[out] active

[in] Short answer needed: outcome of this test for CCCCCCCCCCCCCN1CC(C)OC(C)C1 (configuration not stated) ?
[out] inactive

[in] Short answer needed: outcome of this test for `Clc1ccccc1Cl` ?
[out] inactive

[in] Short answer needed: outcome of this test for `CCC12COCN1COC2` ?
[out] inactive

[in] Short answer needed: outcome of this test for `CC(C)(O)c1cnn2c(-c3ccc(F)c(-c4c(F)cccc4C#N)c3)cnc2n1` ?
[out] active

---

read-out: CD69, CD69 (gene 969); assay: BSK_SAg_CD69: BioMAP Diversity Plus: SAg Assay for CD69 Biomarker Activity (AID 2283089); conditions: primary human HUVEC with PBMC; actives raise or lower the signal
Active and inactive are the calls of the source. How the source made its calls: active means hit-call score of the fitted dose curve at least 0.9, where 1 is the maximum; inactive means score below 0.9.
Lab note: assign the record to one of active, inactive

[in] Short answer needed: outcome of this test for `c1ccc(NNc2ccccc2)cc1` ?
[out] inactive

[in] Short answer needed: outcome of this test for ClC1=C(Cl)C2(Cl)C3C(Cl)C=CC3C1(Cl)C2(Cl)Cl (stereo not drawn) ?
[out] active

[in] Short answer needed: outcome of this test for `Clc1ccccc1Cl` ?
[out] inactive

[in] Short answer needed: outcome of this test for `CCCSC(=O)N(CCC)CCC` ?
[out] inactive

[in] Short answer needed: outcome of this test for `Nc1ccc(Cc2ccc(N)cc2)cc1` ?
[out] inactive

[in] Short answer needed: outcome of this test for `O=[N+]([O-])c1ccc(Oc2ccc(Cl)cc2Cl)cc1` ?
[out] inactive

[in] Short answer needed: outcome of this test for `COC(=O)c1ccccc1N` ?
[out] inactive

[in] Short answer needed: outcome of this test for `N#CC(Br)Br` ?
[out] inactive

---

biological target: X-box-binding protein 1 (Homo sapiens) (UniProt P17861); assay: ATG_Xbp1_CIS: Attagene CIS-FACTORIAL HepG2 Assay for human X-box Binding Protein 1 (XBP1) (AID 2282972); conditions: HepG2 XBP1 cis-element reporter, Attagene multiplex; actives raise or lower the signal
Sequence (P17861 whole entry, looked up): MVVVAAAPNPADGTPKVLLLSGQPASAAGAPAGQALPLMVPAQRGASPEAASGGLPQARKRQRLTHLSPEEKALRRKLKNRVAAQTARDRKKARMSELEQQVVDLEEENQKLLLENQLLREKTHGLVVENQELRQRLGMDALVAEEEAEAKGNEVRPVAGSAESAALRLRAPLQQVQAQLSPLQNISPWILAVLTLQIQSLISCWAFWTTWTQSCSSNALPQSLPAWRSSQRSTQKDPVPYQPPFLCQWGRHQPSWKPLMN
The source made the active and inactive calls. Rule for the calls: active = hit-call score of the fitted dose curve at least 0.9, where 1 is the maximum; inactive = score below 0.9.
Lab note: assign the record to one of t = active, f = inactive

[in] Short answer needed: outcome of this test for `C1=Cc2cccc3cccc1c23` ?
[out] f

[in] Short answer needed: outcome of this test for C[N+](C)(C)CC1CO1 (stereo unspecified) ?
[out] f

[in] Short answer needed: outcome of this test for `Cc1ccc([N+](=O)[O-])cc1` ?
[out] f

[in] Short answer needed: outcome of this test for `Clc1ccc(Cl)c(Cl)c1` ?
[out] f

[in] Short answer needed: outcome of this test for `CN(C)c1ccc(C(=O)c2ccc(N(C)C)cc2)cc1` ?
[out] f

[in] Short answer needed: outcome of this test for `CCCCCOC(=O)c1ccccc1C(=O)OCCCCC` ?
[out] f

[in] Short answer needed: outcome of this test for `Oc1ccccc1Cl` ?
[out] f

[in] Short answer needed: outcome of this test for `O=C(Oc1ccc(Br)cc1)N1CCN2CCC1CC2` ?
[out] f

[in] Short answer needed: outcome of this test for `O=C1CCCO1` ?
[out] f

[in] Short answer needed: outcome of this test for `CN(C)C(=O)Nc1ccc(Cl)cc1` ?
[out] f

[in] Short answer needed: outcome of this test for CCC(C)c1ccc(O)cc1 (stereo unspecified) ?
[out] t

[in] Short answer needed: outcome of this test for `Clc1ccc(C(c2ccc(Cl)cc2)C(Cl)Cl)cc1` ?
[out] t

[in] Short answer needed: outcome of this test for CC(O)CCO (stereo unspecified) ?
[out] f

[in] Short answer needed: outcome of this test for `Nc1ccc(Cl)cc1N` ?
[out] t

[in] Short answer needed: outcome of this test for `c1ccc(NNc2ccccc2)cc1` ?
[out] f

[in] Short answer needed: outcome of this test for `ClC1=C(Cl)[C@]2(Cl)[C@H]3[C@H]([C@@H]4C=C[C@H]3C4)[C@@]1(Cl)C2(Cl)Cl` ?
[out] t

[in] Short answer needed: outcome of this test for `CC(C)(OOC(C)(C)c1ccccc1)c1ccccc1` ?
[out] t

[in] Short answer needed: outcome of this test for `Cc1cccc(N)c1N` ?
[out] t

[in] Short answer needed: outcome of this test for `COC(=O)c1ccccc1N` ?
[out] f

[in] Short answer needed: outcome of this test for `CS(=O)(=O)NC(=O)c1cc(Oc2ccc(C(F)(F)F)cc2Cl)ccc1[N+](=O)[O-]` ?
[out] f

[in] Short answer needed: outcome of this test for `CCCSC(=O)N(CCC)CCC` ?
[out] f

[in] Short answer needed: outcome of this test for `Cn1cc(-c2ccccc2)c(=O)c(-c2cccc(C(F)(F)F)c2)c1` ?
[out] f

[in] Short answer needed: outcome of this test for `CC(C)(C)OOC(C)(C)CCC(C)(C)OOC(C)(C)C` ?
[out] f

[in] Short answer needed: outcome of this test for `N#CC(Br)Br` ?
[out] f

[in] Short answer needed: outcome of this test for `[Cl-].[Cl-].[Hg+2]` ?
[out] f

[in] Short answer needed: outcome of this test for CCCCC(CC)COC(=O)c1ccc(C(=O)OCC(CC)CCCC)c(C(=O)OCC(CC)CCCC)c1 (stereo unspecified) ?
[out] f

[in] Short answer needed: outcome of this test for `ClCCOCCCl` ?
[out] f

[in] Short answer needed: outcome of this test for `CO[C@@H]1[C@H](OC(=O)NC(=O)CCl)CC[C@]2(CO2)[C@H]1[C@@]1(C)O[C@@H]1CC=C(C)C` ?
[out] t

[in] Short answer needed: outcome of this test for `O=[N+]([O-])C(Br)(CO)CO` ?
[out] t

[in] Short answer needed: outcome of this test for `c1ccc2c(c1)oc1ccccc12` ?
[out] f

[in] Short answer needed: outcome of this test for `CCN(CC)CCO` ?
[out] f

[in] Short answer needed: outcome of this test for c1ccc(C2CO2)cc1 (stereo unspecified) ?
[out] f

[in] Short answer needed: outcome of this test for `O=Cc1ccco1` ?
[out] f

[in] Short answer needed: outcome of this test for `CCN(CC)N=O` ?
[out] f

[in] Short answer needed: outcome of this test for `c1ccc(N=Nc2ccccc2)cc1` ?
[out] f

[in] Short answer needed: outcome of this test for `CC(C)(C)OOC(=O)c1ccccc1` ?
[out] t
